meta.source: patent EP0079141A1

pIC50 values by entry
TARGET_ENTITY: 5-lipoxygenase (Cavia porcellus)
Sequence (A0A286X958 1-674): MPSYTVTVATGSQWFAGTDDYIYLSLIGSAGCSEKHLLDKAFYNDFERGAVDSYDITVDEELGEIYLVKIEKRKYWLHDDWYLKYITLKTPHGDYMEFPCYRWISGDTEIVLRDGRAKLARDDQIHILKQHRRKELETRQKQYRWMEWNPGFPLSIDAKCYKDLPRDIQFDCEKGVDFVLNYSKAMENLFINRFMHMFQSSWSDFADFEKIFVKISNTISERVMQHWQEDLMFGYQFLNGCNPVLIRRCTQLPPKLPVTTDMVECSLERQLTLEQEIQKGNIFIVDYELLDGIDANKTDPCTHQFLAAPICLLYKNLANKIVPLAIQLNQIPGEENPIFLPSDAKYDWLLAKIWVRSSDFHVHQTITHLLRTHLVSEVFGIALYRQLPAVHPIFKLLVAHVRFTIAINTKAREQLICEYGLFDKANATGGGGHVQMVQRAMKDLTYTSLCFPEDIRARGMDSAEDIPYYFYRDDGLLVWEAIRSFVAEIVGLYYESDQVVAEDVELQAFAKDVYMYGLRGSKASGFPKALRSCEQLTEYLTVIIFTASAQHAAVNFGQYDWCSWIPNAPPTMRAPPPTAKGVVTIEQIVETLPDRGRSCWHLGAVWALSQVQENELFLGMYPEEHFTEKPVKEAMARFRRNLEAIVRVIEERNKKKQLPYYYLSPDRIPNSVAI
ASSAY_TEXT: Enzyme assay using the 105,000 x g supernate of sonicated polymorphonuclear leukocytes: production of 5-HETE, 5,12-diHETE and LTB
Type: biochemical
CONDITION_INFO: supernate enzyme of guinea pig polymorphonuclear leukocytes, 5 min at 30°C, 1 mM calcium chloride, read-out: concentration for a 50% inhibition of 5-lipoxygenase, i.e. IC50
pIC50: −log10 of the molar value. Counter-ions that a name gives are not always drawn.

COMPOUND	pIC50
Nc1c(O)ccc(C(=O)c2ccccc2)c1O [hydrochloride]	6.40
Nc1c(O)c(Cl)cc(C(=O)c2ccc(Cl)cc2)c1O [hydrochloride]	5.58
COC(c1ccc(Cl)cc1)c1cc(Cl)c(O)c(N)c1O (stereo not shown) [hydrochloride]	5.70
Nc1cc(C(=O)c2ccccc2)c(O)cc1O [hydrochloride]	5.18
